- System: VEGF-induced EBD extravasation
- method.notes: VEGF-induced Dermal Extravasation in Guinea Pig (Miles Assay)
- Type: in vivo
- condition.set: 75 mg/kg, PEG400, oral
result.type: Miles Assay % inhibition (%)
State just the number; it will be interpreted in %.

As a guide, the following entries are already answered.
molecule	experimental.target	Miles Assay % inhibition, %
Cc1cccc2c1C(=CNc1ccc(N3CC(C)OC(C)C3)cc1)C(=O)N2 (stereo not drawn)	VEGF-induced EBD extravasation	39
O=C1Nc2ccccc2C1=CNc1ccc(OCCCCN2CCCCC2)cc1	VEGF-induced EBD extravasation	79
CC1CN(c2ccc(NC=C3C(=O)Nc4ccccc43)cc2)CC(C)O1 (stereo not drawn)	VEGF-induced EBD extravasation	91

Task: Item CC1CN(c2ccc(NC=C3C(=O)Nc4cc(F)ccc43)cc2)CC(C)O1 (stereo not drawn) has what recorded Miles Assay % inhibition?
Result: 97

Task: Now this one: O=C1Nc2ccccc2C1=CNc1ccc(OCCCCN2CCCC2)cc1
Result: 65

Task: Now this one: Nc1cccc(NC=C2C(=O)Nc3ccccc32)c1
Result: 38

Task: Now this one: O=C1Nc2ccccc2C1=CNc1ccc(OCCCN2CCCCC2)cc1
Result: 99

Task: Now this one: O=C1Nc2ccccc2C1=CNc1ccc(N2CCOCC2)cc1
Result: 100

Task: Now this one: O=C1Nc2ccccc2C1=CNc1ccc(OCCCN2CCOCC2)cc1
Result: 53

###

- experimental.target: cytoplasmic domain of the human VEGF receptor (VEGFR-2) (Homo sapiens)
- Construct: The cytoplasmic domain of the human VEGF receptor (VEGFR-2) was expressed as a Histidine-tagged fusion protein; Histidine tag
- method.notes: KDR Assay
- condition.set: His-VEGFR-2; 3.6 μM ATP
hey, just use criterion met if measured IC50 is less than 200 nM, otherwise criterion not met

test.smiles	label.class
Cc1ccc(NC=C2C(=O)Nc3cccc(C)c32)cc1N	criterion met
CCc1ccc(NC=C2C(=O)Nc3ccccc32)cc1	criterion not met
O=C1Nc2ccc(Cl)cc2C1=CNc1ccc(CCN2CCOCC2)cc1	criterion not met

Task: Below 200 nM on IC50? Entry O=C1Nc2ccccc2C1=CNc1ccc(OCCCN2CCCCC2)cc1
Result: criterion met

Task: Now this one: Cc1cccc2c1C(=CNc1ccc(CO)cc1)C(=O)N2
Result: criterion not met

###

Recorded IC50 by entry
- experimental.target: cytoplasmic domain of the human VEGF receptor (VEGFR-2) (Homo sapiens, UniProt P35968)
- Construct: The cytoplasmic domain of the human VEGF receptor (VEGFR-2) was expressed as a Histidine-tagged fusion protein; Histidine tag
- Sequence (P35968 786-1356): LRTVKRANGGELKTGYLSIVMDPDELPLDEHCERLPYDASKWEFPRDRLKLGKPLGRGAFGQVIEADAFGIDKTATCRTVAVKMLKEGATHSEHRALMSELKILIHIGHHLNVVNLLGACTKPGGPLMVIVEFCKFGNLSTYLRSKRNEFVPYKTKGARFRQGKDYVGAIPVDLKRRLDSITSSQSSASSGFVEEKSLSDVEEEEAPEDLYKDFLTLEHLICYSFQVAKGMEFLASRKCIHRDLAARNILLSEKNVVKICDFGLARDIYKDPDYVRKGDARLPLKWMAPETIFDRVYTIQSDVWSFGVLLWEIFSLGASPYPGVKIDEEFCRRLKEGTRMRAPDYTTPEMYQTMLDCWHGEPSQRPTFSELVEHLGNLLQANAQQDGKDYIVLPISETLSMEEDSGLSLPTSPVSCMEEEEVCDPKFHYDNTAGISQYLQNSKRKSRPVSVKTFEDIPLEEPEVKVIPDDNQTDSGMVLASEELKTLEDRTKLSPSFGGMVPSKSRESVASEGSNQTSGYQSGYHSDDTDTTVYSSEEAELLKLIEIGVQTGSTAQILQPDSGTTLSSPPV
- method.notes: KDR Assay
- condition.set: His-VEGFR-2; 3.6 μM ATP

As a guide, the following entries are already answered.
compound	experimental.target	IC50
O=C1Nc2ccc(F)cc2C1=CNc1ccc(OCCN2CCCCC2)cc1	cytoplasmic domain of the human VEGF receptor (VEGFR-2) (Homo sapiens, UniProt P35968)	360 nM
CCc1cccc(NC=C2C(=O)Nc3ccccc32)c1	cytoplasmic domain of the human VEGF receptor (VEGFR-2) (Homo sapiens, UniProt P35968)	520 nM
CCN(CC)CCCOc1ccc(NC=C2C(=O)Nc3cccc(C)c32)cc1F	cytoplasmic domain of the human VEGF receptor (VEGFR-2) (Homo sapiens, UniProt P35968)	70 nM

Task: Identify the measured IC50 of O=C(O)CCCc1ccc(NC=C2C(=O)Nc3ccc(Cl)cc32)cc1 for cytoplasmic domain of the human VEGF receptor (VEGFR-2) (Homo sapiens, UniProt P35968).
Result: 300 nM

Task: Now this one: Cc1cccc2c1C(=CNc1ccc(OCC3CCCN(C)C3)cc1)C(=O)N2 (stereo not shown)
Result: 80 nM

Task: Now this one: Cc1cccc2c1C(=CNc1ccc3cn[nH]c3c1)C(=O)N2
Result: 220 nM

Task: Now this one: CCOc1ccc(NC=C2C(=O)Nc3cccc(C)c32)cc1
Result: 370 nM

Task: Now this one: CN1CCN(CCCCOc2ccc(NC=C3C(=O)Nc4ccccc43)cc2)CC1
Result: 260 nM

Task: Now this one: O=C1Nc2ccc(F)cc2C1=CNc1ccccc1
Result: 610 nM

Task: Now this one: N#Cc1ccc2c(c1)C(=CNc1ccc(N3CCOCC3)cc1)C(=O)N2
Result: 710 nM

Task: Now this one: O=C1Nc2ccc(Cl)cc2C1=CNc1ccc(CN2CCOCC2)cc1
Result: 210 nM

Task: Now this one: CCN(CC)CCCOc1ccc(NC=C2C(=O)Nc3cc(-c4cccc(OC)c4)ccc32)cc1
Result: 250 nM

Task: Now this one: O=C1Nc2ccccc2C1=CNc1cccc(S(=O)(=O)N(CCO)CCO)c1
Result: 6960 nM

Task: Now this one: O=C1Nc2ccc(Cl)cc2C1=CNc1ccc(OCCN2CCCCC2)cc1
Result: 210 nM

Task: Now this one: Cc1cccc2c1C(=CNc1ccc(C(=S)N3CCOCC3)cc1)C(=O)N2
Result: 50 nM

Task: Now this one: COc1ccc(NC=C2C(=O)Nc3ccc(F)cc32)cc1F
Result: 690 nM
